# Method: Pharmacokinetics after single intravenous administration to cannulated rats, noncompartmental analysis
# Format: in vivo, rat
# Test settings: male, Wistar, rat, plasma, iv; read-out: t0.5λz, terminal half-life
Quick reference for half-life among some molecules
Quick reminder: number only, in min, skip the unit.

Example molecules with recorded half-life:
| Molecule | half-life, min |
| --- | --- |
| COc1nc2c(c(=O)n(C)c(=O)n2C)n1CCCC(=O)O [GR-6] | 17.1 |
| COc1ccccc1N1CCN(CCCCCn2cnc3c2c(=O)n(C)c(=O)n3C)CC1 [GR-3] | 49.8 |
| CCOc1nc2c(c(=O)n(C)c(=O)n2C)n1CCCC(=O)NN [GR-5] | 39 |
| Cn1c(=O)c2[nH]cnc2n(C)c1=O [Theo, theophylline, reference compound] | 236 |

Record C[C@@H](O)CCCCn1c(=O)c2c(ncn2C)n(C)c1=O [(R)-LSF, R-lisofylline, reference compound] . Reported half-life: 25.7

Record Cn1c(=O)c2c(ncn2CCCCCN2CCN(c3ccccc3)CC2)n(C)c1=O [GR-2] . Reported half-life: 35.6

----------
# Method: Pharmacokinetics after single intravenous administration to cannulated rats, noncompartmental analysis
# Format: in vivo, rat
# Test settings: male, Wistar, rat, plasma, iv; read-out: CL, total body clearance
Quick reference for clearance among some compounds

Example compounds with recorded clearance:
| Compound | clearance |
| --- | --- |
| Cn1c(=O)c2[nH]cnc2n(C)c1=O [Theo, theophylline, reference compound] | 2.14 mL/min/kg |
| C[C@@H](O)CCCCn1c(=O)c2c(ncn2C)n(C)c1=O [(R)-LSF, R-lisofylline, reference compound] | 22.1 mL/min/kg |
| Cn1c(=O)c2c(ncn2CCCCCN2CCN(c3ccccc3)CC2)n(C)c1=O | 29.6 mL/min/kg |
| COc1ccccc1N1CCN(CCCCCn2cnc3c2c(=O)n(C)c(=O)n3C)CC1 | 23.6 mL/min/kg |
| Cn1c(=O)c2c(ncn2CCCCN2CCN(c3cccc(Cl)c3)CC2)n(C)c1=O | 33.1 mL/min/kg |
| COc1nc2c(c(=O)n(C)c(=O)n2C)n1CCCC(=O)NCc1ccccc1 | 43.2 mL/min/kg |
| COc1nc2c(c(=O)n(C)c(=O)n2C)n1CCCC(=O)O | 43.1 mL/min/kg |
| CCOc1nc2c(c(=O)n(C)c(=O)n2C)n1CCCC(=O)NN | 25.3 mL/min/kg |
| Cn1c(=O)c2c(ncn2CCCCCN2CCN(c3cccc(Cl)c3)CC2)n(C)c1=O | 26.4 mL/min/kg |
| COC(=O)Cn1c(=O)[nH]c2c1c(=O)n(C)c(=O)n2C | 68.1 mL/min/kg |

Okay, next one:
Record CC(=O)CCCCn1c(=O)c2c(ncn2C)n(C)c1=O [PTX, pentoxifylline, reference compound] . Reported clearance: 55.5 mL/min/kg

----------
Quick reference for fraction unbound at 15 min among some compounds
# Method: Plasma protein binding / unbound fraction by ultrafiltration of plasma collected 15 min after i.v. administration
# Type: in vitro ADME
# Test settings: male, Wistar, rat, intravenous, rat plasma 15 min after i.v. administration, ultrafiltration, geometric mean, n = 4, read-out: fu, fraction unbound in plasma
# Experimental: The free concentrations of studied compounds in plasma were determined and unbound fraction (fu) was calculated in all available plasma samples obtained 15 min after the intravenous administration. […] Free and total compound concentrations were measured by a high-performance liquid chromatography method with diode-array detection (HPLC-DAD) or liquid chromatography with tandem mass spectrometry (LC-MS/MS). […]
Hey, just send me the number, nothing else.

Example compounds with recorded fraction unbound at 15 min:
| Compound | fraction unbound at 15 min |
| --- | --- |
| C[C@@H](O)CCCCn1c(=O)c2c(ncn2C)n(C)c1=O [(R)-LSF, R-lisofylline, reference compound] | 0.79 |
| CC(=O)CCCCn1c(=O)c2c(ncn2C)n(C)c1=O [PTX, pentoxifylline, reference compound] | 0.19 |
| COc1ccccc1N1CCN(CCCCCn2cnc3c2c(=O)n(C)c(=O)n3C)CC1 | 0.28 |
| COc1nc2c(c(=O)n(C)c(=O)n2C)n1CCCC(=O)NCc1ccccc1 | 0.13 |
| Cn1c(=O)c2c(ncn2CCCCCN2CCN(c3cccc(Cl)c3)CC2)n(C)c1=O | 0.06 |
| CCOc1nc2c(c(=O)n(C)c(=O)n2C)n1CCCC(=O)NN | 0.89 |

Record Cn1c(=O)c2c(ncn2CCCCCN2CCN(c3ccccc3)CC2)n(C)c1=O . Reported fraction unbound at 15 min: 0.29

Record COc1nc2c(c(=O)n(C)c(=O)n2C)n1CCCC(=O)O . Reported fraction unbound at 15 min: 0.31

Record COC(=O)Cn1c(=O)[nH]c2c1c(=O)n(C)c(=O)n2C . Reported fraction unbound at 15 min: 0.14

Record Cn1c(=O)c2c(ncn2CCCCN2CCN(c3cccc(Cl)c3)CC2)n(C)c1=O . Reported fraction unbound at 15 min: 0.08

----------
# Method: Pharmacokinetics after single intravenous administration to cannulated rats, noncompartmental analysis
# Type: in vivo, rat
# Test settings: male Wistar rats, single i.v. dose (50 mg/kg Theo; 40 mg/kg PTX, LSF; 5 mg/kg GR-1 to GR-5; 2 mg/kg GR-6 to GR-8), geometric mean, n = 4
Quick reference for Vss, volume of distribution at steady-state among some compounds

Example compounds with recorded Vss, volume of distribution at steady-state:
| Compound | Reading |
| --- | --- |
| Cn1c(=O)c2[nH]cnc2n(C)c1=O [Theo, theophylline, reference compound] | 0.72 L/kg |
| CC(=O)CCCCn1c(=O)c2c(ncn2C)n(C)c1=O [PTX, pentoxifylline, reference compound] | 0.92 L/kg |
| COc1nc2c(c(=O)n(C)c(=O)n2C)n1CCCC(=O)O | 0.49 L/kg |

Okay, next one:
Record CCOc1nc2c(c(=O)n(C)c(=O)n2C)n1CCCC(=O)NN . Reported Vss, volume of distribution at steady-state: 0.78 L/kg

----------
Quick reference for fraction unbound at 15 min among some compounds
# Method: Plasma protein binding / unbound fraction by ultrafiltration of plasma collected 15 min after i.v. administration
# Format: in vitro ADME
# Test settings: male, Wistar, rat, intravenous, rat plasma proteins, read-out: percent of plasma protein binding (converted)

| Compound | fraction unbound at 15 min |
| --- | --- |
| Cn1c(=O)c2c(ncn2CCCCCN2CCN(c3ccccc3)CC2)n(C)c1=O | 0.28 to 0.29 |
| C[C@@H](O)CCCCn1c(=O)c2c(ncn2C)n(C)c1=O [(R)-LSF, R-lisofylline, reference compound] | 0.79 |
| COc1ccccc1N1CCN(CCCCCn2cnc3c2c(=O)n(C)c(=O)n3C)CC1 | 0.28 to 0.29 |

Okay, next one:
Record CCOc1nc2c(c(=O)n(C)c(=O)n2C)n1CCCC(=O)NN . Reported fraction unbound at 15 min: 0.89

----------
Quick reference for fraction unbound at 15 min among some compounds
# Method: Plasma protein binding / unbound fraction by ultrafiltration of plasma collected 15 min after i.v. administration
# Assay type: in vitro ADME
# Test settings: male, Wistar, rat, intravenous, rat plasma 15 min after i.v. administration, ultrafiltration, geometric mean, n = 4, read-out: fb, fraction bound to plasma proteins (converted)
# Experimental: The free concentrations of studied compounds in plasma were determined and unbound fraction (fu) was calculated in all available plasma samples obtained 15 min after the intravenous administration. […] Free and total compound concentrations were measured by a high-performance liquid chromatography method with diode-array detection (HPLC-DAD) or liquid chromatography with tandem mass spectrometry (LC-MS/MS). […]
Hey, just send me the number, nothing else.

| Compound | fraction unbound at 15 min |
| --- | --- |
| Cn1c(=O)c2c(ncn2CCCCCN2CCN(c3cccc(Cl)c3)CC2)n(C)c1=O | 0.06 |
| Cn1c(=O)c2c(ncn2CCCCCN2CCN(c3ccccc3)CC2)n(C)c1=O | 0.29 |
| COc1nc2c(c(=O)n(C)c(=O)n2C)n1CCCC(=O)NCc1ccccc1 | 0.13 |
| COc1ccccc1N1CCN(CCCCCn2cnc3c2c(=O)n(C)c(=O)n3C)CC1 | 0.28 |
| COc1nc2c(c(=O)n(C)c(=O)n2C)n1CCCC(=O)O | 0.31 |

Record COC(=O)Cn1c(=O)[nH]c2c1c(=O)n(C)c(=O)n2C . Reported fraction unbound at 15 min: 0.14

Record C[C@@H](O)CCCCn1c(=O)c2c(ncn2C)n(C)c1=O [(R)-LSF, R-lisofylline, reference compound] . Reported fraction unbound at 15 min: 0.79

Record CCOc1nc2c(c(=O)n(C)c(=O)n2C)n1CCCC(=O)NN . Reported fraction unbound at 15 min: 0.89

Record Cn1c(=O)c2c(ncn2CCCCN2CCN(c3cccc(Cl)c3)CC2)n(C)c1=O . Reported fraction unbound at 15 min: 0.08

Record CC(=O)CCCCn1c(=O)c2c(ncn2C)n(C)c1=O [PTX, pentoxifylline, reference compound] . Reported fraction unbound at 15 min: 0.19
